- assay.info: stimulators of insulin release from INS-1E, primary screen, cell-based, 5 mM glucose, NPC library (AID 1117329)
- particulars: rat INS-1E insulin secretion, at 10 µM, stronger effect = higher value
property.label: insulin secretion stimulation (%)
One number for each entry, in %.

Worked set:
{"mol": "O=C(N/N=C/c1ccc([N+](=O)[O-])o1)c1ccc(O)cc1", "property.label": "insulin secretion stimulation", "result.number": -3}
{"mol": "CN(C(=O)C(Cl)Cl)c1ccc(OC(=O)c2ccco2)cc1", "property.label": "insulin secretion stimulation", "result.number": 0.3}

The record that follows has no insulin secretion stimulation shown yet.
*Q* Recorded insulin secretion stimulation of CC(=O)Nc1ccc(C(=O)O)cc1 , please.
*A* -1.8

====

- assay.target: L-lactate dehydrogenase (Plasmodium falciparum (isolate CDC / Honduras))
- assay.info: PfLDH activity inhibition – cell lysate, 3D7 strain, counter-screen for P. falciparum growth inhibition project (AID 2304);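 also: 0% = vehicle and 100% = reference inhibitor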
- particulars: P. falciparum 3D7 crude extract, LDH APAD/NBT absorbance; at 2 µM; stronger effect = higher value
property.label: inhibition (%)
Answers are plain numbers, in %.

{"molecule": "CC(C)c1ccc(CN2CCCCC(NC(=O)c3cc(-c4ccccc4Cl)cs3)C2)cc1 (stereo unspecified)", "inhibition (%)": 3}
{"molecule": "FC(F)(F)c1ccc2nccc(NN=Cc3ccc(Cl)cc3)c2c1", "inhibition (%)": -2}
{"molecule": "O=C(C=Cc1cn(-c2ccccc2)nc1-c1cccs1)N1CCN(c2ccncc2)CC1", "inhibition (%)": 1}
{"molecule": "O=C(CCCCCNC(=O)c1ccc(O)c(-c2ccc(Cl)c(Cl)c2)c1)NCCN1CCCCC1", "inhibition (%)": 0}
{"molecule": "CN1CCC(NCc2cccc(-c3cccc(-c4nc5ccc(C(F)(F)F)cc5[nH]4)c3)c2)CC1", "inhibition (%)": -1}
{"molecule": "COc1cc2c(cc1S(=O)(=O)c1ccc(NC(=O)c3cc4ccccc4s3)cc1)CCN(C)CC2", "inhibition (%)": 2}

Quick batch: inhibition for everything below.
1. CS(=O)(=O)CCNCc1nc(-c2ccc3ncnc(Nc4ccc(OCc5cccc(F)c5)c(Cl)c4)c3c2)cs1
2. C=C[C@H]1CN2CC[C@H]1C[C@@H]2[C@@H](O)c1ccnc2ccc(OC)cc12
3. FC(F)c1nc2ccccc2n1-c1nc(N2CCOCC2)nc(N2CCOCC2)n1
4. COc1c(C2CCN(CCCCNC(=O)c3noc(-c4ccc(C#N)cc4)n3)CC2)ccc2c1CCCC2
5. COc1ccc(C[C@H](N)C(=O)N[C@H]2[C@@H](O)[C@H](n3cnc4c(N(C)C)ncnc43)O[C@@H]2CO)cc1

*A*
1. -3
2. -3
3. -2
4. -1
5. 5

====

- assay.info: growth inhibition of DIPG glioma cells, dose response, cell-based, SU-DIPG-IV, MIPE4.0, CellTiter-Glo, qHTS (AID 1347063);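 also: compound exposure lasted 48 hours before the viability readout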
- particulars: SU-DIPG-IV viability, CellTiter-Glo ATP luminescence
Results filed as inconclusive are left out. Active and inactive are the calls of the source. Cut-off not given; nearly all actives show AC50 up to about 30 µM.
Hello, when you answer, please use one of the following outcomes: true for active, false for inactive

Examples from the recorded data:
{"compound": "CSCC[C@H](NC(=O)[C@H](Cc1c[nH]c2ccccc12)NC(=O)CCNC(=O)OC(C)(C)C)C(=O)N[C@@H](CC(=O)O)C(=O)N[C@@H](Cc1ccccc1)C(N)=O", "answer.label": "false"}
{"compound": "CCC(C)(Oc1ccc(C2(c3ccc(OC(C)(CC)C(=O)O)cc3)CCCCC2)cc1)C(=O)O (stereo not given)", "answer.label": "false"}
{"compound": "CC=CC1=C(C(=O)O)N2C(=O)[C@@H](NC(=O)[C@H](N)c3ccc(O)cc3)[C@H]2SC1", "answer.label": "false"}
{"compound": "COc1ccc(/C=C/C(=O)Nc2ccccc2C(=O)O)cc1OC", "answer.label": "false"}

*Q* Which outcome was entered for the compound COc1c2occc2cc2ccc(=O)oc12 in this test?
*A* false

*Q* Also check C[C@H]1C[C@H]2[C@@H]3CCC4=CC(=O)C=C[C@]4(C)[C@H]3C(=O)C[C@]2(C)[C@@]1(O)C(=O)CO
*A* false

*Q* Also check Cc1nc(Nc2ncc(C(=O)Nc3c(C)cccc3Cl)s2)cc(N2CCN(CCO)CC2)n1
*A* true

*Q* Also check CC(=O)[C@H]1CC[C@H]2[C@@H]3CC=C4C[C@@H](O)CC[C@]4(C)[C@H]3CC[C@]12C
*A* false

*Q* Also check CC(C)(C)C(=O)OCOP(=O)(COCCn1cnc2c(N)ncnc21)OCOC(=O)C(C)(C)C
*A* true

*Q* Also check O=C(O)/C=C/c1ccc(O)c(O)c1
*A* true

====

- assay.info: circadian clock period modulators, cell-based, LOPAC library, luminescence reporter (AID 2774);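 also: values are relative to mean of DMSO wells on each plate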
- particulars: circadian reporter cells, at 7 µM, actives lie on both sides
Activity calls are given as the source filed them. No rule for the calls is given here.
Assignment: determine reported period change for the given molecules.

Worked set:
{"mol": "CC(C)NC[C@@H](O)COc1ccc(CC(N)=O)cc1", "result": "0.075 h (inactive)"}
{"mol": "CCCn1c(=O)c2[nH]c(C3CCCC3)nc2n(CCC)c1=O", "result": "-0.025 h (inactive)"}
{"mol": "N[C@@H](Cc1c[nH]c2ccccc12)C(=O)O", "result": "0.11 h (inactive)"}
{"mol": "CC(C)C[C@H]1C(=O)N2CCC[C@H]2[C@]2(O)O[C@](NC(=O)[C@@H]3C=C4c5cccc6[nH]c(Br)c(c56)C[C@H]4N(C)C3)(C(C)C)C(=O)N12", "result": "0.365 h (inactive)"}
{"mol": "O=c1c(-c2ccc(O)cc2)coc2cc(O)ccc12", "result": "0.115 h (inactive)"}

Quick batch: period change for everything below.
1. CCN1CCc2nc(N)oc2CC1
2. CSc1ccc(C(=O)c2[nH]c(=O)[nH]c2C)cc1

*A*
["0.015 h (inactive)", "0.015 h (inactive)"]

====

- assay.info: stimulators of nuclear beta-catenin in C2C12, primary screen, imaging, WNT3A-conditioned medium, mouse C2C12, NPC library (AID 1117326)
- particulars: at 10 µM, stronger effect = higher value
property.label: nuclear beta-catenin stimulation (%)
Answers are plain numbers, in %.

Worked set:
{"compound": "CN1CCN(c2c(F)cc3c(=O)c(C(=O)O)cn(CCF)c3c2F)CC1", "nuclear beta-catenin stimulation / %": 0.3}
{"compound": "CCc1cccc(N(C)C(N)=Nc2cccc3ccccc23)c1", "nuclear beta-catenin stimulation / %": -1.6}
{"compound": "O=c1[nH]c(=O)c2ccccc2o1", "nuclear beta-catenin stimulation / %": 0.9}

Quick batch: nuclear beta-catenin stimulation for everything below.
1. CC(C)CCCC(C)N (centres undefined)
2. Nc1nc(Cl)nc2c1ncn2[C@@H]1O[C@H](CO)[C@@H](O)[C@@H]1F
3. CC(=O)N[C@@H](CCC(N)=O)C(=O)O
4. CC(C)(C)NC[C@H](O)COc1cccc2c1CCCC2=O
5. CC[N+](CC)(CCNC(=O)C(=O)NCC[N+](CC)(CC)Cc1ccccc1Cl)Cc1ccccc1Cl

*A*
3.1
30.8
-2.5
0
0.3

====

- assay.info: differential killing of epithelial or mesenchymal cells, primary screen, imaging, PC-3E GFP, TEM4-18 mCherry, co-culture (AID 1345086);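 also: cells exposed to compound for 72 h before imaging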
- particulars: imaging cell counts, measured here: mesenchymal TEM4-18 mCherry cell survival, at 1 µM
Bridge positions count the residues as written; N and C are the ends. Square brackets hold non-standard residues; d marks the D form. Peptide text beside a SMILES is read from it. * marks the point of attachment. Octanoyl(6-Me) = CCC(C)CCCCC(=O)*; Dab = NCC[CH](N)C(=O)O
property.label: normalised cell number
Give bare numbers.

{"compound": "NCCCS(=O)(=O)O", "result.number": 1.02}
{"compound": "COCCCOc1ccnc(CS(=O)c2nc3ccccc3[nH]2)c1C (stereo not drawn)", "result.number": 0.91}
{"compound": "CC1=C(C/C=C(\\C)CCC[C@H](C)CCC[C@H](C)CCCC(C)C)C(=O)c2ccccc2C1=O", "result.number": 1.01}
{"compound": "O=C(O)c1cc2ccccc2[nH]1", "result.number": 0.95}
{"compound": "CC1=CC2C(CC1=O)C(C)=CCC2C(C)C (stereo not drawn)", "result.number": 1.28}
{"compound": "CN(C)CCN(Cc1cccs1)c1ccccn1", "result.number": 1.22}
{"compound": "CCC(C)CCCCC(=O)NC(CCN)C(=O)NC(C(=O)NC(CCN)C(=O)NC1CCNC(=O)C(C(C)O)NC(=O)C(CCN)NC(=O)C(CCN)NC(=O)C(CC(C)C)NC(=O)C(Cc2ccccc2)NC(=O)C(CCN)NC1=O)C(C)O (stereo not drawn) ({Octanoyl(6-Me)}-[Dab]T[Dab][Dab][Dab]FL[Dab][Dab]T; lactam 4-C; configuration not given here)", "result.number": 1.14}

The record that follows has no normalised cell number shown yet.
*Q* Recorded normalised cell number of O=C(Oc1ccccc1C(=O)O)c1ccccc1O , please.
*A* 1.35
